# Measured on: T1, human CD24 (human, UniProt P25063 27-59, heavily glycosylated, GPI-anchored (as described in the background))
# T1 construct: whole, on cells; Target of all cell-based FACS assays; also called hCD24; Cluster of differentiation 24
# T1 chain (looked up): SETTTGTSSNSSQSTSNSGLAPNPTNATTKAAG
# Measurement description: FACS, Nalm1 cells
# Protocol: Screening & Expansion: The subcloning plates were screened by Acumen assay and the subclones with good binding ability were expanded to 24-wells for confirmation tests. The specificity and cross-reactivity of these subclones were confirmed with FACs analysis. […] Fluorescent dye-conjugated secondary antibody was used to detect the binding of the primary antibody with the cells. Median fluorescence intensity (MFI) was measured by FACs analysis.
Endpoint name: FACS MFI
Reply briefly: the number, and no unit.

Could you share which FACS MFI value was measured for 110D4G4 (antibody, V domains shown, mouse monoclonal antibody; also called mAb-110D4G4) VH: EVQLQQSGPGLVKPGASVKISCRASGYLFTGYYMNWVKQSPEKSLEWIGEINPNTGDPRYDQKFKAKATLTVDRSSSTAYMHLKSLTSEDSAVYFCARRDYGTSLDYWGQGTTLTVTS VL: DVQITQSPSYLAASPGETITINCRASKSISKYLAWYQEKPGKTNKLLIYSGSTLQSGIPSRFSGSGSGSDFTLTISSLEPEDFAMYYCQQHNEYPLTFGAGTKLELK ? 76200

Could you do the same for 58F10-1F6 (antibody, V domains shown, mouse monoclonal antibody) VH: EVQLRQSGPELVKPGAAVKISCKASGYSFTGYHMNWVKQSPEKSLEWIGEINPITSGITYNQIFKAKATLTVDKSSSTAYLQLKSLTSEDSAVYYCTRRDYGTSLDYWGQGTTLTVSS VL: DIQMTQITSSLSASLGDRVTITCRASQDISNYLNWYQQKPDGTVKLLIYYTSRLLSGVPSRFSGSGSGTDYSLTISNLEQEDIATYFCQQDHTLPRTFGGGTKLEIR , please? 20900
